- SYSTEM UNDER TEST: T1, purified ALK protein (BLitz, Table 20) (Homo sapiens (Human), UniProt Q9UM73 19-1038, limits assumed)
- T1 construct: also called purified ALK proteins
- T1 sequence (Q9UM73 19-1038 limits assumed): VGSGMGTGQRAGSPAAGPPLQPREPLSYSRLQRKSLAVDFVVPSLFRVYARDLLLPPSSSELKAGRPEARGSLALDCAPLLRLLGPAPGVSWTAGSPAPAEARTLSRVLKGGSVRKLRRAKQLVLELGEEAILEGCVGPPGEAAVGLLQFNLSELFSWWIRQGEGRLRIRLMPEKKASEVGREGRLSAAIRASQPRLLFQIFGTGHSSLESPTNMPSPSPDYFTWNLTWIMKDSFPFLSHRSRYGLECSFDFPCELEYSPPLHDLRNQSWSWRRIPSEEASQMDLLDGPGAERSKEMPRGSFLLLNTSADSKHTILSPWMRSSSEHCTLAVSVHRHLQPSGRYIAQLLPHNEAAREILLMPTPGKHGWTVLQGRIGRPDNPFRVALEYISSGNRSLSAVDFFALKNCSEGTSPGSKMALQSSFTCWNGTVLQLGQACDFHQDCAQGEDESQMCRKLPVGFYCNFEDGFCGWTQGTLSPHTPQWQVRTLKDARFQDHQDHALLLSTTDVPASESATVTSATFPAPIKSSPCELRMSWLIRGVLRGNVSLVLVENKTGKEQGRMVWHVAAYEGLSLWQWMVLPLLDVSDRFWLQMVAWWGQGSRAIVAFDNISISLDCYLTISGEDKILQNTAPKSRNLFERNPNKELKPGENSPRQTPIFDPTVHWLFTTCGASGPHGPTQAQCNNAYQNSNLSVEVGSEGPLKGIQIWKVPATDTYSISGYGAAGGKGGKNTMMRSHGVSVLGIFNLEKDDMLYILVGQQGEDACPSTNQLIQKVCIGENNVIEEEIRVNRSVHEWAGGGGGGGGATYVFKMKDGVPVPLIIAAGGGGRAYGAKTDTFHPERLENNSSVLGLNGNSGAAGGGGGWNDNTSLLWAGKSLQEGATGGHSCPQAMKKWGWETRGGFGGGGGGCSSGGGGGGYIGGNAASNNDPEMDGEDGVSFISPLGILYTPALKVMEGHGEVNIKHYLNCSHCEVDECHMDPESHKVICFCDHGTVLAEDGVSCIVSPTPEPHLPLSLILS
- ASSAY METHOD TEXT: BLI (BLitz), mAb on Protein A tip, purified ALK in solution
Overview of recorded Kd for various binders
Answer format: numeric, nM implied, no suffix.

Below are worked cases with known answers.
| BINDER | Kd [nM] |
| --- | --- |
| Ab379 (antibody, V domains shown, humanized) VH: QVQLVQSGAEVAKPGASVKLSCKASGYTFTSYWMHWVKQAPGQGLEWIGYIKPSSGYTKYNQKFKDKATLTADKSTSTAYMELRSLRSDDTAVYYCARDYYGSSSWFAYWGQGTLVTVSS VL: EIVMTQSPAFMSVTVGEKVTITCKASQNVGTNVAWYQQKPDQSPKALIYSASYRYSGVPSRFSGSGSGTDFTLTISSLEAEDAATYYCQQYNSYPYMYTFGQGTKLEIK | 118 |
| Ab391 (antibody, V domains shown, humanized) VH: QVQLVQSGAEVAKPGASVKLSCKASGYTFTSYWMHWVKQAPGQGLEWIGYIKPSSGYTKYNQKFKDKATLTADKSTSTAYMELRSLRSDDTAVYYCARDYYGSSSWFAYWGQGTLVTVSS VL: EIVMTQSPATLSTSPGERATLSCKASQNVGTNVAWYQQKPGQAPRALIYSASYRYSGVPARFSGSGSGTDFTLTISSVEPEDFAVYYCQQYNSYPYMYTFGQGTKLEIK | 175 |

Need Kd, item Ab423 (antibody, V domains shown, humanized) VH: QVQLVQSGAEVAKPGTSVKLSCKASGYTFTSYWMHWVKQAPGQGLEWIGYIKPSSGYTKYNQKFKDKVTLTADKSTSTAYMELSSLRSEDTAVYYCARDYYGSSSWFAYWGQGTLVTVSS VL: EIVMTQSPATLSTSPGERATLSCRASQSVSSNLAWYQQKPGQAPRALIYSASYRYSGVPARFSGSGSGTDFTLTISSVEPEDFAVYYCQQYNSYPYMYTFGQGTKLEIK
266
